Target System: DNA-PK phosphorylation at serine 2056 (Homo sapiens (Human))
Protocol Notes: DNA-PK phosphorylation at serine 2056 (cellular), bleomycin-treated HCT116 cells, ELISA
Type: cell-based
Test Settings: cellular; HCT116 cells, 10 μM bleomycin, six hours; read-out: IC50 pDNA-PK
Measured IC50 values are reported for all entries that follow.

Molecule	IC50
COc1ccc(C(O)c2ccc(F)c(-c3ncnc4cc(N5CCOCC5)ccc34)c2)nn1 (stereo not drawn)	< 0.5 µM
COc1cnc(C(O)c2ccc(F)c(-c3ncnc4cc(N5CCOCC5)ccc34)c2)nc1 (stereo not drawn) [Example 66]	10 to 30 µM
COc1ccc(C(O)c2cc(-c3ncnc4cc(N5CCOCC5)sc34)c(F)cc2Cl)nn1 (single isomer, unassigned) [Example 126]	< 0.5 µM
CCn1nc(C(O)c2cc(-c3ncnc4cc(N5CCOCC5)ccc34)c(F)cc2Cl)ccc1=O (stereo not drawn) [Example 93]	< 0.5 µM

Next molecule, IC50 to be filled in.
Q: Would you kindly share the measured IC50 for COc1ccnnc1C(O)c1cc(-c2ncnc3cc(N4CCOCC4)ccc23)c(F)cc1Cl (stereo not drawn) ?
A: 0.5 to 5 µM
